Here the recorded Anti-CD28 Fab signal is given for each entry.
# Target: T1, Anti-CD28 Fab (SEQ ID NOs: 202, 203)
# T1 construct: biotinylated and captured on neutravidin coated plates in the phage ELISA
# T1 sequence (VH, as listed by the source, chain 1 of 2): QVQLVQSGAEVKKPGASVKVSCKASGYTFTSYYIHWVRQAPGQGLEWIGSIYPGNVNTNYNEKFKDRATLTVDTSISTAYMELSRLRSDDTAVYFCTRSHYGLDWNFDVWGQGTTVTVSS
# T1 sequence (VL, as listed by the source, chain 2 of 2): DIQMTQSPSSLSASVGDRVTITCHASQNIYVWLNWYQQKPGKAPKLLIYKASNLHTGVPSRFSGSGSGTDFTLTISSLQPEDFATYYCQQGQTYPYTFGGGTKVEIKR
# Assay Info: phage ELISA on captured biotinylated Fab;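 also: wells preblocked with or without CD28 antigen, then clonal phage supernatant added briefly, washed, and bound phage read out by ELISA using HRP-linked anti-M13 antibody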
Just the number, please.

Please review the following examples before continuing.
Binder	Anti-CD28 Fab signal
YCDGHAPEYIYKCL [Phage-164]	2.18
YCDGHAIEYMQKCL [Phage-229]	2.05
YCDGHSAEYMMKCL [Phage-192]	2.12

Next item in the queue.
input: Output Anti-CD28 Fab signal of YCDGHASEYMMKCL [Phage-237]
output: 2.05

Cited source: patent US20260274955A1
